test system: UACC-62 melanoma; assay: NCI tumour cell line growth inhibition, 48 h
PROPERTY_MEASURED: TGI (µM)
Provide only the numeric value, understood in µM.

COc1ccccc1/C=C1\CCC(CNc2ccc(Cl)cc2)C1=O (centres undefined): 3.48

With those in mind, consider the next compound.
Req: Any idea what TGI was measured for O=C1c2ccccc2-c2c1c1ccc([N+](=O)[O-])cc1c(=O)n2CCNCCCNCCn1c2c(c3ccc([N+](=O)[O-])cc3c1=O)C(=O)c1ccccc1-2 ?
Resp: 2.03

----------
Reported TGI by item:
test system: SK-MEL-2 melanoma; test: NCI tumour cell line growth inhibition, 48 h

CCON=C1C(C)(C)C(C)(C)C(C)(C)C1(C)C: > 100 µM
CC1=C(C)CC2(SC1)C(=O)c1ccccc1C2=O: > 100 µM
CCOP(=O)(OCC)/C(=C\N1C(=O)CC(=O)NC1=S)C(=O)OC: > 100 µM
CC(=O)NC1=C(C)C(=O)c2c(nc3n2CCC3O)C1=O (stereo not drawn): 42.8 µM
O=C(Cn1c(=O)c(-c2ccccc2)nc2ccccc21)c1cccnc1: > 100 µM

Req: I'd like to know its TGI. The molecule in question is COc1ccc(C(O)c2cc3c(N)c(C(=O)Nc4cccc(Cl)c4C)sc3nc2C)cc1 (stereo not drawn)
Resp: 1.84 µM

Req: Further, for O=C1CCC2(CC1CCSc1ccccc1)OCCO2 (stereo not drawn) ?
Resp: > 100 µM

Req: Another molecule: Cc1nccn1S(=O)(=O)c1ccc(Br)cc1Br
Resp: 55 µM

Req: Also, Cc1nc2cncc(C#Cc3cncc(C(=O)Nc4ccc(CN5CCN(C)CC5)c(C(F)(F)F)c4)c3)c2nc1C please.
Resp: 0.94 µM

Req: Moving on to the next molecule: O=C1C=C2CO[C@H]3OC[C@H](O)[C@@H]1[C@@H]23
Resp: 37.3 µM

Req: Now this one: Cc1ccc(C(=O)O/N=C2/CCCCC2CN(C)C)cc1 (stereo not drawn)
Resp: > 100 µM

Req: Next up: Cn1c(-c2ccc[se]2)ccc1-c1ccc(CO)[se]1
Resp: > 100 µM

----------
Listed next: entries and their corresponding TGI.
system: 786-0 renal; experiment: NCI tumour cell line growth inhibition, 48 h
Number only, in µM; omit the unit.

Cc1ccc2c[c]1[Hg][CH2]COS2(=O)=O: 32

Req: For 786-0 renal, provide TGI of CN(C)/C=C/c1nnnn1-c1ccc(Cl)cc1 please.
Resp: 56.3

----------
test system: A549 NSCLC; experiment: NCI tumour cell line growth inhibition, 48 h
PROPERTY_MEASURED: TGI

Req: Any idea what TGI was measured for COC(=O)Nc1nc2ccc(Oc3ccc(NC(=O)Nc4cccc(Br)c4)cc3)cc2[nH]1 ?
Resp: > 13.4 µM

Req: Another compound: CC(=O)OCc1cc(=O)n(C)c2c3c4c(cc12)c(C)cc(=O)n4CO3
Resp: 21.1 µM

Req: Input O=Nc1c(-c2cccc([N+](=O)[O-])c2)nc2cnccn12
Resp: 83.8 µM

----------
Attribute: TGI
tested on: T-47D breast; assay: NCI tumour cell line growth inhibition, 48 h

Check out these entries, answers already filled in.
Cc1cc(N=Cc2c(CO)cnc(C)c2O)c(N=Cc2c(CO)cnc(C)c2O)cc1C.[Zn]: > 100 µM
CNC(=O)c1c(NC(=O)c2cccc(C(F)(F)F)c2)sc2c1CCC(=O)C2: 2.29 µM
CCOCC(=O)N[C@H]1CCc2cc(OC)c(OC)c(OC)c2-c2ccc(SC)c(=O)cc21: > 100 µM
CC1=C(SCc2ccccc2)C(=O)c2ccccc2C1=O: > 100 µM
O=C(NC1(C(=O)NNc2nnc(-c3ccccc3)c(-c3ccccc3)n2)C(c2ccccc2)C(c2ccccc2)=NN1c1ccccc1)c1ccccc1 (stereo not drawn): > 100 µM

Req: For Cc1cccc2nc3cccc(C(=O)NCCC[N+](C)(CCCNC(=O)c4cccc5nc6cccc(C)c6nc45)Cc4c([N+](=O)[O-])ncn4C)c3nc12 , what is its reported TGI?
Resp: > 1100 µM

Req: // same read-out, input: Cc1ccc(S(=O)(=O)NC(=O)NCCC(=O)O)cc1
Resp: > 100 µM

Req: Further, for Nc1nc2c(c3ncccc13)C(c1ccc(Cl)c(Cl)c1)Cc1ncccc1-2 (stereo not drawn) ?
Resp: 13.4 µM
